test system: T-47D breast; experiment: NCI-60 one-dose screen, 48 h (100 = growth as untreated, 0 = no growth, -100 = all killed); conditions: 10 µM unless noted
The panel holds about 83,000 compounds, 20% with a hit somewhere; the sample as a whole holds those more often.
Assign a class from recorded growth; defined classes: low (below 30%), mid (30% to below 80%), high (80% or more)

These recorded examples may help you get a feel for the data.
-- ask Where would CCOC(=O)c1c2ncccc2n2c(=O)n(-c3ccc(Cl)cc3)nnc12 land among the classes by reported growth?
-- reply mid

-- ask Where would CC/C=C\C[C@H](O)C/C=C1/C(=O)C=C[C@@H]1C/C=C\CCCC(=O)NC land among the classes by reported growth?
-- reply low

More entries:
-- ask Where would NS(=O)(=O)c1ccc(Nc2nc3n[nH]c(Nc4ccccc4)c3c(=O)[nH]2)cc1 land among the classes by reported growth?
-- reply high

-- ask Where would COc1cc(-c2c3c(nc4c2c(C)nn4-c2ccccc2)-c2ccccc2C(=O)C3=O)cc(OC)c1OC land among the classes by reported growth?
-- reply mid

-- ask Where would COc1cc2nc3cc([N+](=O)[O-])ccc3c(NCCCNCC(C)(C)O)c2cc1OC land among the classes by reported growth?
-- reply low

###

test system: MDA-MB-435 melanoma; assay: NCI-60 one-dose screen, 48 h (100 = growth as untreated, 0 = no growth, -100 = all killed); settings: 10 µM unless noted
Compounds without any hit were thinned out: in the full panel of roughly 83,000, 20% have a hit.
A collection of molecules and their measured growth
Your answer is read as %, so omit the unit and give the number.

Example results:
-- ask Using the record for COc1ccc(/C=N\NC(=O)CN2CCN(c3cc4c(cc3F)c(=O)c(C(=O)N/N=C/c3ccc(OC)cc3)cn4C3CC3)CC2)cc1 , report its growth.
-- reply 90.3

-- ask Using the record for COCCOC(=O)C1=C(C)NC(=S)NC1c1ccc2c(c1)OCO2 (stereo not given) , report its growth.
-- reply 104

-- ask Using the record for COCCCN=C(N)c1ccc(NC(=O)c2ccc(C(=O)Nc3ccc(C(N)=NCCCOC)cc3)cc2)cc1 , report its growth.
-- reply 88.4

-- ask Using the record for O=C([C@@H](COCc1ccccc1)N1C(=O)[C@@H](N2C(=O)OC[C@@H]2c2ccccc2)[C@H]1/C=C/c1ccccc1)N1CCC(CCN2CCCCC2)CC1 , report its growth.
-- reply 97.7

-- ask Using the record for COc1cc(C2CC(=O)Nc3c2cnn3Cc2ccco2)cc2c1OCCO2 (stereo not given) , report its growth.
-- reply 4.28

More entries:
-- ask Using the record for CC(C)[C@H]1COC(=O)N1[C@@H]1C(=O)N([C@@H](CCC(=O)N2CCN(C3CCCC3)CC2)C(=O)N[C@@H]2CCCc3ccccc32)[C@@H]1/C=C/c1cccc(Br)c1 , report its growth.
-- reply 30.2

-- ask Using the record for Oc1cc(O)c2c(=S)cc(-c3ccc(Cl)cc3)oc2c1 , report its growth.
-- reply 25.9

-- ask Using the record for N=c1c2ccccc2nc2n1CCCCC2 , report its growth.
-- reply 103

-- ask Using the record for Cc1cc(OCc2ccc(C(F)(F)F)cc2)c2c(c1)C(=O)C=C(NCCN1CCCC1)C2=O , report its growth.
-- reply -23.5

-- ask Using the record for Cc1csc2ccc(Cl)cc12 , report its growth.
-- reply 103

-- ask Using the record for O=C1c2cc3c(cc2-c2c1c1cc(Cl)c(Cl)cc1c(=O)n2C[C@H](O)CO)OCO3 , report its growth.
-- reply -24.8

-- ask Using the record for CC#CC#Cc1cccc(=O)o1 , report its growth.
-- reply 15.2

-- ask Using the record for Nc1nc2c(c3ncccc13)C(c1ccc(Cl)c(Cl)c1)Cc1ncccc1-2 (stereo not given) , report its growth.
-- reply 6.95

-- ask Using the record for CN1CCN(Cc2ccc(NC(=O)c3[nH]ncc3Nc3ncnc4c3CCC4)cc2)CC1 , report its growth.
-- reply 29.6

-- ask Using the record for COc1ccc(C(=O)c2sc3nc(-c4ccccc4OC)ccc3c2N)cc1OC , report its growth.
-- reply 31.7

-- ask Using the record for N#Cc1c2c(nc3n[nH]c(N)c13)CCCC2 , report its growth.
-- reply 106

-- ask Using the record for Cc1ccc2c(c1)C(=O)c1c-2c(OCCCN(C)C)nc2ccccc12 , report its growth.
-- reply -32.1

-- ask Using the record for C=CCSc1nnc(-c2ccc(C(C)(C)C)cc2)n1-c1cccc(C(F)(F)F)c1 , report its growth.
-- reply 52.5

-- ask Using the record for O=C1Nc2ccccc2C12CC(c1ccc(Cl)cc1)=NN2 (stereo not given) , report its growth.
-- reply 98.8

-- ask Using the record for Cc1ccc(-c2nc(/C=N/Nc3cc(C)nc4ccc(Br)cc34)c(C)o2)cc1 , report its growth.
-- reply -95.1
